# systemUnderTest: UniProt Q12809
# Sequence (Q12809 whole entry): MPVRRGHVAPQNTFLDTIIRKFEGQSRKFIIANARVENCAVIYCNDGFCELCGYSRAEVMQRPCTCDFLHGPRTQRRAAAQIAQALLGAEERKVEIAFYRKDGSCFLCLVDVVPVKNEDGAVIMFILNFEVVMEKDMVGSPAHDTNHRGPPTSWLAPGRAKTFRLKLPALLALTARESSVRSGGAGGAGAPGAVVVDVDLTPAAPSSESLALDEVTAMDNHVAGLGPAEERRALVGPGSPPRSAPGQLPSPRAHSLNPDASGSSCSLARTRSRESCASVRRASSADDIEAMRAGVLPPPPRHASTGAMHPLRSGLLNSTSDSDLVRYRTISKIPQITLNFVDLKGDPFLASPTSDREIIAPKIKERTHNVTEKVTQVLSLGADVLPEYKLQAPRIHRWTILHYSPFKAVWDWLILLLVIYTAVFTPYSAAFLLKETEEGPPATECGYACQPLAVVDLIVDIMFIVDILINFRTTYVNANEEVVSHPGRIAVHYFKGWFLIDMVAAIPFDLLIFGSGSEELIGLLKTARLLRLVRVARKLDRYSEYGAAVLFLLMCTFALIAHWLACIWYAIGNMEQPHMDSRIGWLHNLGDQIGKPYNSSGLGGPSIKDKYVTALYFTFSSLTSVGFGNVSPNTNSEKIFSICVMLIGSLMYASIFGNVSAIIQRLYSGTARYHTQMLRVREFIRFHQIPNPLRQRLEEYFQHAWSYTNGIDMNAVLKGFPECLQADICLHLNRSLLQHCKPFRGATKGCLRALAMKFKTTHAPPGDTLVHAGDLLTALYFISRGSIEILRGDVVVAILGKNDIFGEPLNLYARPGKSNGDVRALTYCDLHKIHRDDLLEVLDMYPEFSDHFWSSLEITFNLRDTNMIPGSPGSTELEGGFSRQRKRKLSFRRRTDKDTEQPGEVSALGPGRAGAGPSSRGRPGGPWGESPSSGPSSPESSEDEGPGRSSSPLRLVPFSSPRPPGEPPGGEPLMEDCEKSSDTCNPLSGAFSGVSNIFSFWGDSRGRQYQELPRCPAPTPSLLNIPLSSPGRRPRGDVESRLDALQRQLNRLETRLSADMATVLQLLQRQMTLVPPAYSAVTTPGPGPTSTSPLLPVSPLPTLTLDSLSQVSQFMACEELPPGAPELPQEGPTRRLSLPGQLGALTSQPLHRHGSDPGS
# testDetails: Tox21 qHTS FluxOR thallium flux assay in hERG-U2OS cells
# runConditions: hERG-U2OS cells, thallium flux, qHTS; result in words
measureName: activity outcome for hERG inhibition in the assay

// below: answered compounds
compound: O=C1NCN(c2ccccc2)C12CCN(CCCC(c1ccc(F)cc1)c1ccc(F)cc1)CC2
result: most active

compound: OC(CN1CCC(Cc2ccc(F)cc2)CC1)c1ccc(Cl)cc1 (centres unmarked)
result: most active

compound: Clc1ccc(C(c2ccccc2Cl)C(Cl)(Cl)Cl)cc1 (centres unmarked)
result: inhibitory activity

compound: CCCCCCCC[P+](CCCCCCCC)(CCCCCCCC)CCCCCCCC.[Br-] [tetraoctylphosphonium bromide]
result: most active

Exercise: Quick one: give measured activity outcome for hERG inhibition in the assay for CCNc1ccc(C(=C2C=CC(=[N+](CC)CC)C=C2)c2ccc(N(CC)CC)cc2)c2ccccc12.[Cl-]
Key: most active

Exercise: Quick one: give measured activity outcome for hERG inhibition in the assay for C/C=C/C(=O)Oc1ccccc1[N+](=O)[O-]
Key: inhibitory activity

Exercise: Quick one: give measured activity outcome for hERG inhibition in the assay for CC(C)(C)c1ccc(CSc2cnn(C(C)(C)C)c(=O)c2Cl)cc1
Key: inhibitory activity

Exercise: Quick one: give measured activity outcome for hERG inhibition in the assay for O=C(CCCN1CCC(O)(c2cccc(C(F)(F)F)c2)CC1)c1ccc(F)cc1
Key: most active

Ref: paper PMC8869358
